Target: PDL1, Q9NZQ7
Sequence (Q9NZQ7 whole entry): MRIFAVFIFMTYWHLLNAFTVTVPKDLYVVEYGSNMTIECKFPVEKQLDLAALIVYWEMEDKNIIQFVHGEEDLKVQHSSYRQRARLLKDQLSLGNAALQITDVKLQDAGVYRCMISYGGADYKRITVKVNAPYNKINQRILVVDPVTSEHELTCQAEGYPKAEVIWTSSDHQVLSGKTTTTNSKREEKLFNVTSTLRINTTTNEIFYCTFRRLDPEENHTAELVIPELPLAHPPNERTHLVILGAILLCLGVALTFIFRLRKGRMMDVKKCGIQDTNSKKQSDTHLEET
# output must be one of active, inactive

Sample answers from the record:
Binder	Label Value
d8r1_design_ppi_1231_dldesign_0_cycle1_af2pred (protein) MTEEEMAALVQAARDAAKAAAAAAGPAVAPTMAAMVALAEEERDNPGELESIAQSVATAAARAVAAAAAAA	inactive
d8r1_design_ppi_530_dldesign_0_cycle0_af2pred (protein) AAALAAALAAAAEAAAAAEAEAVAAAVSETVAAAARAAIKSFESGANKELAKQAMAAASAAGAAMKAGDTAAAQQYAAQTQALVAQIA	inactive
d8r1_design_ppi_427_dldesign_0_cycle0_af2pred (protein) MSRIAAWVIAAISAAATDPAEADKVAARAAEEALANPEKADEALALAAETARAAGLDAATVDAAVARIRALVAAL	inactive
d8r1_design_ppi_305_dldesign_0_cycle1_af2pred (protein) AEEALKLLAEAAAAASPEVAALANQALALLKQAENPEAMKQAIALLNAAYLAADPAIQPLIRRALQLAMQVLAKADR	inactive

Alright, here's another binder for you.
input: Hi, do you know how d8r1_design_ppi_1481_dldesign_0_cycle1_af2pred (protein) SSDEDYAALVEGMALASQTYAQARALIAATGAAGGAQARALAQAAAAQLRAAGAKYPSRAAQYDALADGLVRTVTAAAA came out in this test?
output: active
